MEASURED TARGET: UniProt Q9UBC3
MEASUREMENT NOTES: DNMT3B breaklight assay
Format: biochemical
ASSAY SETUP: read-out: DNMT3B Breaklight IC50
pIC50: −log10 of the molar value.
MEASURED PARAMETER: pIC50

CCc1c(C#N)c(SCc2ccc(CC(N)=O)cc2)nc(N2CCCN(C)CC2)c1C#N [Example 83]: < 3.60
CCc1c(C#N)c(SC(C(N)=O)c2ccccc2)nc(N2CCN(CCO)CC2)c1C#N (stereo not shown) [Example 129]: < 3.30
CCc1c(C#N)c(SC(C(N)=O)c2ccccc2)nc(N2CCCN(CCOC)CC2)c1C#N (stereo not shown) [Example 106]: < 3.30
CCc1c(C#N)c(SC(C(N)=O)c2ccccc2)nc(N2CCN(C(C)=O)CC2)c1C#N (stereo not shown) [Example 126]: < 3.30
CCCN1CCCN(c2nc(SC(C(N)=O)c3ccccc3)c(C#N)c(CC)c2C#N)CC1 (stereo not shown) [Example 6]: < 3.30
CCc1c(C#N)c(SCc2ccccc2)nc(N2CCC(N)CC2)c1C#N [Example 81]: < 3.60
N#Cc1c(SC(C(N)=O)c2ccccc2)nc(N2CCOCC2)c(C#N)c1C1CC1 (stereo not shown) [Example 130]: < 3.30
CCc1c(C#N)c(SC(C(N)=O)c2ccccc2)nc(N2CCC(N3CCNC3=O)CC2)c1C#N (stereo not shown) [Example 47]: < 3.30
CCc1c(C#N)c(SC(C(N)=O)c2ccccc2)nc(N2CCNCC2)c1C#N (stereo not shown) [Example 55]: 3.57

Task: What measured pIC50 goes with CCc1c(C#N)c(SC(C(N)=O)c2ccccc2)nc(N2CCNC(=O)CC2)c1C#N (stereo not shown) [Example 8] ?
Output: < 3.30

---

Entries and their measured EC50 follow.
Test system: erythroid progenitor cells (EPCs)
MEASUREMENT NOTES: Fetal hemoglobin (HbF) ELISA in day 7 erythroid progenitor cells;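 note: for fetal hemoglobin induction normalized to vehicle-treated cells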
Assay type: cell-based, human
ASSAY SETUP: Homo sapiens, Erythroid progenitor cell, HbF ELISA, day 7 EPCs, 5 days; read-out: EPC ELISA (pEC50 category) (converted)

Task: Which EC50 is reported for this compound? CCc1c(C#N)c(SC(C(N)=O)c2ccccc2)nc(N2CCN(Cc3ccoc3)CC2)c1C#N (centres unmarked) [Example 200]
Output: 1 to 31.6 µM

Task: Report EC50 for CCc1c(C#N)c(SC(C(N)=O)c2ccccc2)nc(N(C)CC(=O)NC(CO)CO)c1C#N (centres unmarked) [Example 658] please.
Output: 1 to 31.6 µM

Task: I would be grateful if you could share the reported EC50 for CCc1c(C#N)c(SC(C(N)=O)c2ccccc2)nc(N2CCO[C@@H](CN)C2)c1C#N (some centres unmarked) [Example 586] .
Output: < 0.316 µM

Task: Which value of EC50 has been reported for CCc1c(C#N)c(SCc2ccc(CO)cc2)nc(N2CCCN(C)CC2)c1C#N [Example 85] in the records?
Output: 1 to 31.6 µM

Task: Given CN(CC(=O)NC(CO)CO)c1nc(SC(C(N)=O)c2ccccc2)c(C#N)c(C2CC2)c1C#N (centres unmarked) [Example 639] , state its recorded EC50.
Output: 1 to 31.6 µM

Task: Request the reported EC50 associated with CCc1c(C#N)c(SC(C(N)=O)c2ccccc2)nc(N2C[C@@H](O)[C@@H](O)C2)c1C#N (some centres unmarked) [Example 219]
Output: 1 to 31.6 µM

Task: May I ask what EC50 has been recorded for [2H]C([2H])([2H])N(c1nc(SC(C(N)=O)c2ccccc2)c(C#N)c(CC)c1C#N)C([2H])([2H])[2H] (centres unmarked) [Example 404] ?
Output: 0.316 to 1 µM
